assay: growth effects on S. cerevisiae YJM789 – YJM789 clinical isolate, OD600, 24 h, basal, primary screen (AID 1089); conditions: higher = more signal, called active from +8 up or from −8 down;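 also: growth of clinical yeast isolate S. cerevisiae YJM 789 seeded 1000 cells per well; test concentration not given here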
Categorize each record by its z-score using 1 (below -0.9), 2 (-0.9 to below 0.3), 3 (0.3 or more)

- compound: "COc1ccc([Si](C)(C)[C@@H]2[C@@H](CCO)O[C@]3(C(=O)N(Cc4cccc(N(C=O)c5ccccc5)c4)c4ccccc43)[C@H]2C)cc1"
  assigned label: 3
- compound: "C[N+](C)(C)CCCCNC(=O)[C@H]1C[C@H]2C(=O)N3CCC[C@H]3C(=O)N2[C@H]1c1ccc(O)cc1"
  assigned label: 2
- compound: "C#C[C@H]1Oc2ccccc2S(=O)(=O)N2CCC[C@@H]12"
  assigned label: 2
- compound: "CCCNC(=O)[C@@]1(c2ccc([N+](=O)[O-])cc2)CC(=O)N(CC23CC4CC(CC(C4)C2)C3)[C@@H]1c1ccc(CO)cc1I"
  assigned label: 3
- compound: "CC(=O)N1Cc2ccccc2C[C@@]2(N=C(c3ccc(OCCCO)cc3)O[C@H]2c2ccccc2)C1=O"
  assigned label: 1
- compound: "Cn1c2c(c3ccccc31)C(=O)C1NC2C=CC1(C)C(=O)OCc1ccccc1 (centres undefined)"
  assigned label: 2
- compound: "C=CCN1C(=O)[C@]2(Cc3ccccc31)N=C(c1ccc(OCCCO)cc1)O[C@@H]2c1ccccc1"
  assigned label: 1

###

assay: forskolin-driven CRE-LacZ activity in PC12 – cell-based, CRE-LacZ reporter, forskolin-stimulated, primary screen (AID 1146); settings: luminescence, 4.5 h, higher = more signal, called active from +8 up or from −8 down;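 also: PC12 cells with 6xCRE LacZ reporter stimulated by forskolin 10 µM; beta-galactosidase reporter signal reflecting CREB driven transcription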
The source made the active and inactive calls.

- compound: "CN(C)CCCCCCNC(=O)[C@@H]1C[C@@H]2C(=O)N[C@@H](Cc3ccccc3)C(=O)N2[C@@H]1c1cccc(OCCO)c1"
  z-score: "-1.29 (inactive)"
- compound: "COCCn1c(C(=O)N(C)C)cc2c1C[C@H]1CN(C(=O)c3ccccc3)[C@@](Cc3ccc(F)cc3)(C(=O)OC)[C@@H]21"
  z-score: "-0.578 (inactive)"
- compound: "C=C[C@@H](C)[C@@H](OC(=O)Nc1ccc(OC)cc1)c1ccc(O)c2ccccc12"
  z-score: "0.999 (inactive)"
- compound: "O=C(NCc1ccccc1)[C@@H]1c2ccccc2C(=O)N(Cc2cc(F)cc(C(F)(F)F)c2)[C@H]1c1ccc(CO)cc1"
  z-score: "-1.61 (inactive)"
- compound: "COCCCNC(=O)[C@@]1(C)c2ccccc2C(=O)N(Cc2ccccc2)[C@H]1c1ccc(CO)cc1"
  z-score: "-0.463 (inactive)"
- compound: "O=C1C2C=CC(C(O)c3ccc(B(O)O)cc3)N(Nc3ccc([N+](=O)[O-])cc3)C2C(=O)N1c1ccccc1 (stereo unspecified)"
  z-score: "-2.26 (inactive)"
- compound: "CCCC[C@H]1OB(O)C[C@H]2C1=C(COc1ccccc1)C[C@H]1C(=O)N(Cc3ccccc3)C(=O)[C@H]12"
  z-score: "-0.208 (inactive)"
- compound: "CO[C@H]1O[C@H](CO)[C@@H](OC(=O)Nc2cccc(F)c2)[C@H](OC(=O)Nc2ccccc2-c2ccccc2)[C@@H]1OC(=O)Nc1ccccc1-c1ccccc1"
  z-score: "0.0811 (inactive)"
- compound: "C=CCOC(=O)[C@@H]1[C@H]2C(=O)O[C@H](c3ccccc3)[C@H](c3ccccc3)N2[C@H](c2ccc(OCCOC(=O)[C@H]3C[C@H]4C(=O)N[C@@H](Cc5ccccc5)C(=O)N4[C@H]3c3ccc(O)cc3)cc2)[C@@]12C(=O)Nc1ccc(I)cc12"
  z-score: "11.7 (active)"
- compound: "O=C1O[C@H](c2ccccc2)[C@H](c2ccccc2)N2[C@H]1[C@@H](C(=O)Nc1nc3ccccc3s1)[C@]1(C(=O)Nc3ccc(C#CC4=CCCCC4)cc31)[C@H]2c1ccc(OCCO)cc1"
  z-score: "0.205 (inactive)"
- compound: "O=C1NC(=O)C2C1C=CC(C(O)c1cccs1)N2Nc1ccccn1 (stereo unspecified)"
  z-score: "-1.04 (inactive)"
- compound: "COc1ccc([Si](C)(C)[C@H]2[C@H](CC(=O)N3CCC[C@H]3CO)O[C@@]3(C(=O)N(c4ccccc4)c4ccccc43)[C@@H]2C)cc1"
  z-score: "-0.38 (inactive)"
- compound: "C=CCC(OC(C)=O)[C@@H]1[C@@H](N(Cc2cc3ccccc3o2)C(=O)c2ccc(-c3ccccc3)cc2)c2cc(OCCCO)ccc2N1C(=O)Cc1ccc2ccccc2c1 (stereo partly specified)"
  z-score: "0.874 (inactive)"
- compound: "Cc1cccc(/C=C/C=O)c1"
  z-score: "-0.0647 (inactive)"
- compound: "COCC1=C([C@H](O)CCc2ccccc2)[C@H](CO)[C@@H]2C(=O)N(Cc3ccccc3)C(=O)[C@@H]2C1"
  z-score: "-0.0417 (inactive)"
- compound: "COC(=O)[C@@]1(Cc2ccc(OC)cc2)[C@H]2c3cc(C(=O)N4CCCC4)n(CCN4CCOCC4)c3C[C@H]2CN1C(=O)c1ccccc1"
  z-score: "1.64 (inactive)"
- compound: "CC(C)(C)OC(=O)CC[C@]1(C(=O)NCC(O)CO)N=C(c2ccc(OCCCO)cc2)O[C@H]1c1ccccc1CN=[N+]=[N-] (stereo partly specified)"
  z-score: "-0.209 (inactive)"
- compound: "COc1ccccc1CN1C(=O)c2ccccc2[C@](Cc2ccccc2I)(C(=O)NC2CC2)[C@@H]1c1ccc(CO)cc1"
  z-score: "-0.572 (inactive)"
- compound: "Cc1ccc(C(C)CC(O)C2C=CC3C(=O)NC(=O)C3N2Nc2ccccn2)o1 (stereo unspecified)"
  z-score: "-0.364 (inactive)"
- compound: "O=C1OCCC/C=C\\[C@H]2OC34C=CCN(Cn5nnc6ccccc65)C(=O)[C@H]3N(CCCO)C(=O)[C@@H]4C12 (stereo partly specified)"
  z-score: "0.168 (inactive)"
- compound: "Cc1ccc(S[C@]2(C(=O)NCc3ccccc3)CC(=O)N(Cc3cc(C(F)(F)F)cc(C(F)(F)F)c3)[C@@H]2c2ccc(CO)cc2)cc1"
  z-score: "1.21 (inactive)"
- compound: "CN(C)CCCC[C@@H]1NC(=O)[C@@H]2C[C@H](C(=O)NCc3ccc(F)cc3)[C@H](c3cccc(OCCO)c3)N2C1=O"
  z-score: "-1.18 (inactive)"
- compound: "C=C(CCCC)/C(=C/C[C@@H](OC(=O)c1ccncc1)c1ccc(CO)o1)c1cc(C(=O)OC)ccc1OC"
  z-score: "4.24 (inactive)"
- compound: "CC(C)C(O)C1C=CC2C(=O)N(C)C(=O)C2N1N1CCCCC1 (stereo unspecified)"
  z-score: "0.0399 (inactive)"
- compound: "C=CC[C@]1(C(=O)NCCN2CCOCC2)N=C(c2ccc(OCCCO)cc2)O[C@H]1c1ccccc1N=[N+]=[N-]"
  z-score: "-1.37 (inactive)"
- compound: "COCCOC(=O)N1C(=O)[C@@]2(c3cc(C#CC4=CCCCC4)ccc31)[C@H](c1ccc(OCCO)cc1)N1[C@H](c3ccccc3)[C@H](c3ccccc3)OC(=O)[C@H]1[C@@H]2C(=O)Nc1nc2ccccc2s1"
  z-score: "-0.482 (inactive)"

###

test: S6 kinase pathway phospho-S6 level changes – cell-based, A549, cytoblot, luminescence, serum-stimulated, primary screen (AID 1158); details: 5 h, higher = more signal;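 also: serum-stimulated A549 lung adenocarcinoma cells; signal is phosphorylated S6 detected by cytoblot immunostaining with HRP secondary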
# z-score per entry
measure: z-score

- compound: "COc1ccc([Si](C)(C)[C@H]2[C@H](CCO)O[C@@]3(C(=O)N(Cc4ccccc4)c4ccc(N5C(=O)COc6ccccc65)cc43)[C@@H]2C)cc1"
  assay value: 2.08
- compound: "C=CCOC(=O)[C@H]1[C@@H]2C(=O)O[C@@H](c3ccccc3)[C@@H](c3ccccc3)N2[C@@H](c2ccc(OCCOC(=O)[C@H]3C[C@H]4C(=O)N[C@@H](CCCC[N+](C)(C)C)C(=O)N4[C@H]3c3ccc(O)cc3)cc2)[C@]12C(=O)Nc1ccccc12"
  assay value: -0.327
- compound: "C=C(CCCC)C(=O)CC[C@H](OC(=O)c1ccccc1-c1ccccc1C(=O)O)c1ccc(CO)o1"
  assay value: -0.16
- compound: "Cc1ccc(C(C)CC(O)C2C=CC3C(=O)NC(=O)C3N2Nc2ccccn2)o1 (centres undefined)"
  assay value: -0.439

###

assay: growth effects on S. cerevisiae YJM789 – YJM789 clinical isolate, OD600, 24 h, basal, primary screen (AID 1089); conditions: higher = more signal, called active from +8 up or from −8 down;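 also: growth of clinical yeast isolate S. cerevisiae YJM 789 seeded 1000 cells per well; test concentration not given here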
Activity calls are given as the source filed them.
measure: z-score

- molecule: "O=C1OCCC/C=C\\[C@H]2OC34C=CCN(Cn5nnc6ccccc65)C(=O)[C@H]3N(CCCO)C(=O)[C@@H]4C12 (some centres not stated)"
  measure: "z-score"
  assay value: "-0.57 (inactive)"
- molecule: "CO[C@H]1O[C@H](CO)[C@@H](OC(=O)Nc2ccc(C(F)(F)F)cc2)[C@H](OC(=O)Nc2ccccc2)[C@@H]1OC(=O)Nc1ccccc1"
  measure: "z-score"
  assay value: "0.0975 (inactive)"
- molecule: "[N-]=[N+]=NCc1ccccc1C[C@]1(C(N)=O)N=C(c2ccc(OCCCO)cc2)O[C@H]1c1ccccc1N=[N+]=[N-]"
  measure: "z-score"
  assay value: "1.22 (inactive)"
- molecule: "CC(C)C[C@@H]1NC(=O)[C@@H]2C[C@H](C(=O)NCCCCN(C)C)[C@H](c3ccc(O)cc3)N2C1=O"
  measure: "z-score"
  assay value: "-0.145 (inactive)"
- molecule: "C=CCOC(=O)[C@@H]1[C@H]2C(=O)O[C@H](c3ccccc3)[C@H](c3ccccc3)N2[C@H](c2ccc(OCCOC(=O)[C@H]3C[C@H]4C(=O)N[C@@H](Cc5ccccc5)C(=O)N4[C@H]3c3ccc(O)cc3)cc2)[C@@]12C(=O)Nc1ccc(I)cc12"
  measure: "z-score"
  assay value: "2.61 (inactive)"
- molecule: "COC(=O)[C@@]1(Cc2ccc(OC)cc2)[C@H]2c3cc(C(=O)N4CCCC4)n(C[C@H](O)CO)c3C[C@H]2CN1C(=O)c1ccccc1"
  measure: "z-score"
  assay value: "0.659 (inactive)"
- molecule: "C=CCN1C(=O)[C@@]2(O[C@@H](CCO)[C@H]([Si](C)(C)c3ccc(OC)cc3)[C@H]2C)c2cc(NC(C)=O)ccc21"
  measure: "z-score"
  assay value: "0.0173 (inactive)"
- molecule: "C=C(C(=O)CC[C@@H](OC(=O)c1cccnc1)c1ccc(CO)o1)C(C)C"
  measure: "z-score"
  assay value: "0.813 (inactive)"
- molecule: "CCCCCN1CC=CC23O[C@@H]4C=CCCOC(=O)C4[C@H]2C(=O)N(CCCO)[C@@H]3C1=O (some centres not stated)"
  measure: "z-score"
  assay value: "0.0103 (inactive)"
- molecule: "CCOC(=O)C[C@H]1[C@H](OC(=O)c2ccc(C(=O)c3ccccc3)cc2)[C@@H](NC(=O)c2ccc3ccccc3n2)c2cc(OCCCO)ccc2N1C(=O)c1ccc2ccccc2n1"
  measure: "z-score"
  assay value: "0.179 (inactive)"
- molecule: "CCCCC(=C=CC[C@H](O)c1ccccc1OCCO)C[C@H](O)c1cc(Cl)cc(Cl)c1O"
  measure: "z-score"
  assay value: "0.906 (inactive)"
- molecule: "COc1ccc([Si](C)(C)[C@H]2[C@H](CCO)O[C@@]3(C(=O)N(Cc4cccc(N5C(=O)c6cccc7cccc5c67)c4)c4ccccc43)[C@@H]2C)cc1"
  measure: "z-score"
  assay value: "2.05 (inactive)"
- molecule: "CCOC(=O)C[C@H]1[C@H](OC(=O)c2cc3ccccc3oc2=O)[C@@H](NC(=O)c2ccc3ccccc3c2)c2cc(OCCCO)ccc2N1C(=O)c1ccccc1"
  measure: "z-score"
  assay value: "-0.087 (inactive)"
- molecule: "CCN(CC)c1ccc(N2CC=CC34O[C@@H]5/C=C\\CCC(C)OC(=O)C5[C@H]3C(=O)N(CCCCCCO)[C@@H]4C2=O)cc1 (some centres not stated)"
  measure: "z-score"
  assay value: "-0.13 (inactive)"
- molecule: "C[N+](C)(C)CCCC[C@@H]1NC(=O)[C@H]2C[C@@H](C(=O)O)[C@@H](c3cccc(OCCO)c3)N2C1=O"
  measure: "z-score"
  assay value: "-1.28 (inactive)"
- molecule: "O=C1OCC=C[C@H]2OC34C=CCN(c5ccc6ccccc6c5)C(=O)[C@H]3N(CCO)C(=O)[C@@H]4[C@@H]12 (some centres not stated)"
  measure: "z-score"
  assay value: "0.689 (inactive)"
- molecule: "O=C1OCC=C[C@H]2OC34C=CCN(c5ccc(Cl)cc5)C(=O)[C@H]3N(CCCO)C(=O)[C@@H]4[C@@H]12 (some centres not stated)"
  measure: "z-score"
  assay value: "0.0783 (inactive)"

Data provenance is PubChem BioAssay.
